src = patent US12173020B2

# System: methicillin-resistant Staphylococcus aureus (MRSA)
# assay-summary: agar dilution method, inhibitory effect on MRSA
# Assay type: cell-based
readout-type: Minimum inhibitory concentration (MIC50, μg/ml) MRSA (µg/mL)

# example entries with known answers
{"compound": "C=Cn1nnc(-c2ccc(-c3ccc(N4C[C@@H](C(O)C(F)F)OC4=O)cc3F)cn2)n1.O=P(O)(O)O (some centres unmarked) [compound 152]", "reported": 0.3}
{"compound": "CCn1nnc(-c2ccc(-c3ccc(N4C[C@H](C(O)C(F)(F)F)OC4=O)cc3F)cn2)n1.O=P(O)(O)O (some centres unmarked) [compound 95]", "reported": 0.3}
{"compound": "CCCn1nnc(-c2ccc(-c3ccc(N4C[C@H](C(OP(=O)(O)O)C(F)F)OC4=O)cc3F)cn2)n1 (some centres unmarked) [compound 139]", "reported": 0.8}

A. CCC(OP(=O)(O)O)[C@@H]1CN(c2ccc(-c3ccc(-c4nnn(C5CC5)n4)nc3)c(F)c2)C(=O)O1 (some centres unmarked) [compound 116]
B. CCCn1nnc(-c2ccc(-c3ccc(N4C[C@@H](C(O)C(F)F)OC4=O)cc3F)cn2)n1.O=P(O)(O)O (some centres unmarked) [compound 140]
Problem: Choose between A and B : whose measured Minimum inhibitory concentration (MIC50, μg/ml) MRSA value is numerically larger? # answer = label of selected item
Solution: B
